This collection of values is drawn from paper PMC4336329.

assay_target: human ether-à-go-go-related gene (hERG) potassium channel (human, UniProt Q12809);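 also: peak tail current of the secondary pulse compared with the same well before compound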
Sequence (Q12809 whole entry, looked up): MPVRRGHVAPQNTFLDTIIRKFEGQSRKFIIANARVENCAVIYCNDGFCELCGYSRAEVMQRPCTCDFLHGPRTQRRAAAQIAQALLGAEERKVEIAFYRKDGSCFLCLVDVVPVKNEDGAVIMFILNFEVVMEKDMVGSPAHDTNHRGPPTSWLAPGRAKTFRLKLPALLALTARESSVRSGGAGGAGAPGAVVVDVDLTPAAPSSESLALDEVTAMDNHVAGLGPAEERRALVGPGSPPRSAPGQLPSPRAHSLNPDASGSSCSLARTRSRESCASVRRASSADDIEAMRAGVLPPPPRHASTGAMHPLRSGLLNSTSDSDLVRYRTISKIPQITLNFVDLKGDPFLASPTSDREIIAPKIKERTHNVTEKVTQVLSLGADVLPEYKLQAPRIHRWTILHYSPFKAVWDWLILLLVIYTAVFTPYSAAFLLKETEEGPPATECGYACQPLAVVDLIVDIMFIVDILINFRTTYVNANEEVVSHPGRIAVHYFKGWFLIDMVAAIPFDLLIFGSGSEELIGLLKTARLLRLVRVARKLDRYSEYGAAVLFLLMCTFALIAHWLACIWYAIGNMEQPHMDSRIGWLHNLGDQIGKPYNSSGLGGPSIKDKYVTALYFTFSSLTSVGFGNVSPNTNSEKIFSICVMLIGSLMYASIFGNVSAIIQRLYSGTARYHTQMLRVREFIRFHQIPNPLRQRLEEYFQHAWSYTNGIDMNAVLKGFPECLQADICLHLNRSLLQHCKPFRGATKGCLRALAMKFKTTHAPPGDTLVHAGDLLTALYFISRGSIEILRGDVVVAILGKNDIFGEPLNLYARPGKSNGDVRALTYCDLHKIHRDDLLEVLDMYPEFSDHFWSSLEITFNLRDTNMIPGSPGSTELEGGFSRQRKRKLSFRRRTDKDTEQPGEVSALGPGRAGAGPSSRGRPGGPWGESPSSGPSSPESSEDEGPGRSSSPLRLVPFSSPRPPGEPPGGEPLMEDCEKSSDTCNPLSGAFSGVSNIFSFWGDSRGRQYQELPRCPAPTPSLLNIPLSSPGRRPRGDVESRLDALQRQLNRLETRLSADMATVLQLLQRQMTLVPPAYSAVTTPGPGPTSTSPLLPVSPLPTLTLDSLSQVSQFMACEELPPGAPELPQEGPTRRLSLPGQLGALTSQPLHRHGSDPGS
test_details: primary screen, population patch clamp on CHO cells stably expressing hERG; higher = less effect of the substance
The campaign covered roughly 310,000 compounds. About 14,000 (4.5%) showed an effect of 50% or more. The effect is printed as a negative number. The list comes from a sample in which strong results are over-represented; it also holds close analogues and randomly drawn compounds.
quantity_measured: hERG current change (%, negative = inhibition) at 10uM (%)
Numbers only, in %.

Cc1cccc(-c2ncc(CN3CCC(CO)(CCCc4ccccc4)CC3)cn2)c1 : -54.1
CCNC(=S)N1CCC(C(=O)c2ccc(Cl)cc2)CC1 : -16.8
COc1cc(C(=O)OC(C)C(=O)Nc2ccc3c(c2)OCO3)ccc1OCc1c(C)noc1C (stereo not drawn) : 15.8
N#Cc1cccc(C(=O)OCC(=O)N2CCCc3ccccc32)c1 : -1.94

Record hERG current change (%, negative = inhibition) at 10uM for all entries; do not skip any.
1. COc1ccc(C(=O)N2N=C(c3ccc(NS(C)(=O)=O)cc3)CC2c2cccs2)cc1 (stereo not drawn)
2. COc1ccccc1-n1nnnc1SCc1cc2c(cc1Br)OCO2
3. COc1cccc(C2CC(c3ccc(NS(C)(=O)=O)cc3)=NN2C(=O)c2ccccc2)c1OC (stereo not drawn)
4. COc1cccc(C2CC(c3cccc(NS(C)(=O)=O)c3)=NN2C(=O)c2ccccc2)c1OC (stereo not drawn)
5. CC(=O)c1cccc(CN2CCC(CO)(Cc3ccccc3)CC2)c1

[-10.6, -9.95, -64.4, -40.5, -22.9]

I need hERG current change (%, negative = inhibition) at 10uM for every entry listed below, if you could help.
1. COc1cccc(C2CC(c3ccc(Br)cc3)=NN2C(=O)c2ccncc2)c1OC (stereo not drawn)
2. COC(=O)c1cccc(C(=O)N2CCC(CO)(CCc3ccccc3)CC2)c1
3. O=C(CN1CCN(Cc2ccc(F)cc2)CC1)NCCc1ccccc1
4. Cc1noc(C)c1COc1cccc(C(=O)OC(C)C(=O)Nc2ccc3c(c2)OCO3)c1 (stereo not drawn)

1. -29.7
2. -13.6
3. -13.6
4. -61.2

Need hERG current change (%, negative = inhibition) at 10uM for each of these compounds.
1. COc1ccccc1C(=O)C1CCCN(Cc2ccc3c(c2)OCCO3)C1 (stereo not drawn)
2. O=C(CN1CCCCC1)Nc1ccc(NC(=O)c2ccc(Cl)cc2)cc1Cl
3. O=C(c1ccc(Cl)cc1)C1CCCN(Cc2ccon2)C1 (stereo not drawn)
4. COc1cccc(CC2(CO)CCN(Cc3cnc(-c4cccc(C)c4)nc3)CC2)c1

1. -40.5
2. 13.7
3. -18
4. -19.9
